biological target: Carnitine O-palmitoyltransferase 1, muscle isoform (Homo sapiens, UniProt Q92523); experiment: SUPPLEMENTARY: Inhibition of Carnitine palmitoyltransferase 1, muscle isoform
Sequence (Q92523 whole entry, canonical isoform): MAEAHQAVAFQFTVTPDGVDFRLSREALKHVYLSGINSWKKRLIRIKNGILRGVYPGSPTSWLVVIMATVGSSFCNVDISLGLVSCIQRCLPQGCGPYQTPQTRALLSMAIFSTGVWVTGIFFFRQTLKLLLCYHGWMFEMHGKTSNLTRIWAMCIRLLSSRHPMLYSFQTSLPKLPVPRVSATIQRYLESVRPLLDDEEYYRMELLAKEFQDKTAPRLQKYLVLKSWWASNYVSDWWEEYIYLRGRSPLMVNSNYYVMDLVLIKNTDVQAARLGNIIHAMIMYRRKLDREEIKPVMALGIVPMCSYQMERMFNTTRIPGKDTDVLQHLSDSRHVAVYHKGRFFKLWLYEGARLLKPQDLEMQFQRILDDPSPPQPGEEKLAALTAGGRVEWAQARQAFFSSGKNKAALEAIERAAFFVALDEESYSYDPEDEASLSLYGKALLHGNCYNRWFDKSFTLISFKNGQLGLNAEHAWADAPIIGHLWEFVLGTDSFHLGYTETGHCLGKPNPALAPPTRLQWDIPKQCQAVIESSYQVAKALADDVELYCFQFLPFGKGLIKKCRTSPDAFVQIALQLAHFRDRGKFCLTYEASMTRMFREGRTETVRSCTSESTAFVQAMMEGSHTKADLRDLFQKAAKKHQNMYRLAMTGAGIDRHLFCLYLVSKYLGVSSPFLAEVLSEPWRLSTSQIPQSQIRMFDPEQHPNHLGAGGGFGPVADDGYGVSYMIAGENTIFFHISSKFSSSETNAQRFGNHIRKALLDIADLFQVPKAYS
observation_type: IC50 (µM)
State just the number; it will be interpreted in µM.

Note to self: IC50 recorded for COc1ccc(Cl)cc1S(=O)(=O)N1CC(C)c2ccc(C(=O)Nc3ccc(C(=O)O)c(F)c3)cc21 (centres undefined) was 1.18

Note to self: IC50 recorded for CCN(c1cc(C(=O)Nc2ccn(CC(=O)O)n2)cc2c1OCO2)S(=O)(=O)c1cc(Cl)ccc1OC was 1.37

Note to self: IC50 recorded for COc1ccc(Cl)cc1S(=O)(=O)N1COc2ccc(C(=O)Nc3ccc(CC(=O)O)cc3)cc21 was 0.504

Note to self: IC50 recorded for O=C1COc2ccc(-c3n[nH]c([C@H]4CCCCN4C(=O)COc4ccccc4)n3)cc2N1 was 94.2

Note to self: IC50 recorded for COc1ccc(Cl)cc1S(=O)(=O)N1CC(C(=O)O)Cc2ccc(C(=O)Nc3ccccc3)cc21 (centres undefined) was 5.9
